tested on: Dd2 parental parasites; assay: L-[14C]lactate uptake by isolated Dd2 parental parasites; settings: read-out: IC50, inhibition of L-[14C]lactate uptake; Dd2 (parental) parasites; pH 6.1, 4°C, 20 s; mean ± SEM
Reported IC50 by item:
// return numeric value only (unit: nM, not printed)

{"Compound": "O=C1CC(O)(C(F)(F)C(F)(F)F)Oc2ccccc21 (centres unmarked)", "IC50 (nM)": 49}

With those in mind, consider the next compound.
May I ask what IC50 has been recorded for COc1ccc2c(c1)OC(O)(C(F)(F)C(F)(F)F)CC2=O (centres unmarked) ?
158

====

tested on: erythrocytes infected with 3D7 trophozoites; assay type: cell-based, Plasmodium falciparum; settings: sheet Ratio; Exp2, 3hr
Peptide text beside a SMILES is read from it.
Reported Metric: Ratio of metabolite abundance, Exp2_3hr
The answer should be written as a number, with no unit following it.

Worked examples follow.
{"Compound": "CC(C)C[C@H](NC(=O)CNC(=O)[C@H](CC(=O)O)NC(=O)[C@@H](N)CO)C(=O)N[C@@H](C)C(=O)O [SDGLA] (H-SDGLA-OH)", "System": "erythrocytes infected with 3D7 trophozoites", "Ratio of metabolite abundance, Exp2_3hr": 0.9448}
{"Compound": "C[C@H](NC(=O)[C@@H]1CCCN1)C(=O)N[C@@H](CCC(=O)O)C(=O)N[C@@H](Cc1ccccc1)C(=O)O [PAEF] (H-PAEF-OH)", "System": "erythrocytes infected with 3D7 trophozoites", "Ratio of metabolite abundance, Exp2_3hr": 0.5962}
{"Compound": "NC(=O)c1ccc[n+]([C@@H]2O[C@H](COP(=O)([O-])OP(=O)(O)OC[C@H]3O[C@@H](n4cnc5c(N)ncnc54)[C@H](OP(=O)(O)O)[C@@H]3O)[C@@H](O)[C@H]2O)c1", "System": "erythrocytes infected with 3D7 trophozoites", "Ratio of metabolite abundance, Exp2_3hr": 0.9729}
{"Compound": "O=C(O)[C@@H]1CC(O)CN1 (stereo partly drawn) [Hydroxy-L-proline]", "System": "erythrocytes infected with 3D7 trophozoites", "Ratio of metabolite abundance, Exp2_3hr": 1.17}
{"Compound": "CCCCC/C=C\\C/C=C\\C/C=C\\CCCCCCC(=O)O", "System": "erythrocytes infected with 3D7 trophozoites", "Ratio of metabolite abundance, Exp2_3hr": 0.6938}

May I ask what Ratio of metabolite abundance, Exp2_3hr has been recorded for `Nc1ncnc2c1ncn2[C@H]1C[C@H](O)[C@@H](COP(=O)(O)OP(=O)(O)OP(=O)(O)O)O1` ?
1.102

Next entry: CC(C)C[C@H](NC(=O)[C@@H](N)CC(=O)O)C(=O)N[C@@H](CO)C(=O)O [DLS] (H-Asp-Leu-Ser-OH)
0.8658

Next entry: CC(C)C[C@H](N)C(=O)N[C@@H](CC(=O)O)C(=O)O [LD] (H-Leu-Asp-OH)
1.077

====

system: erythrocytes infected with 3D7 trophozoites; assay type: cell-based, Plasmodium falciparum; details: sheet Ratio; Exp2, 3hr
Peptide text beside a SMILES is read from it.
Response field label: string, one of 1 (Ratio of metabolite abundance, Exp2_3hr strictly below 0.9) or 0.

Previously resolved entries follow.
{"Molecule": "O=C(O)CC[C@H](NC(=O)[C@@H]1CCCN1)C(=O)O [PE] (H-Pro-Glu-OH)", "Class Assignment": 0}
{"Molecule": "O=P(O)(O)OC[C@H]1OC(O)(CO)[C@@H](O)[C@@H]1O (stereo partly shown) [Fructose-6-Phosphate]", "Class Assignment": 0}

Below: the item to evaluate.
Please check: Ratio of metabolite abundance, Exp2_3hr for CC(C)[C@H](NC(=O)[C@@H]1CCCN1)C(=O)N[C@@H](CC(N)=O)C(=O)N[C@@H](Cc1ccccc1)C(=O)O [PVNF] (H-PVNF-OH) , strictly under 0.9 or not?
1

====

system: erythrocytes infected with 3D7 trophozoites; assay type: cell-based, Plasmodium falciparum; settings: sheet Ratio; Exp3, 3hr
Peptide text beside a SMILES is read from it.
Reported Metric: Ratio of metabolite abundance, Exp3_3hr
The answer should be written as a number, with no unit following it.

{"Compound": "Nc1ccn([C@@H]2O[C@H](COP(=O)(O)O)[C@@H](O)[C@H]2O)c(=O)n1", "Ratio of metabolite abundance, Exp3_3hr": 1.206}

May I ask what Ratio of metabolite abundance, Exp3_3hr has been recorded for O=C(O)[C@H](O)COP(=O)(O)O [3-Phosho-D-glycerate] ?
1.065

Next entry: CC(C)C[C@H](N)C(=O)N[C@@H](CC(=O)O)C(=O)O [LD] (H-Leu-Asp-OH)
1.268

====

Reported Ratio of metabolite abundance, Exp3_3hr by item:
system: erythrocytes infected with 3D7 trophozoites; assay type: cell-based, Plasmodium falciparum; conditions: sheet Ratio; Exp3, 3hr
Peptide text beside a SMILES is read from it.
The answer should be written as a number, with no unit following it.

Worked examples follow.
{"Compound": "O=C(COP(=O)(O)O)[C@@H](O)[C@H](O)[C@H](O)[C@H](O)COP(=O)(O)O [Sedoheptoluse bisphosphate]", "Ratio of metabolite abundance, Exp3_3hr": 0.8186}
{"Compound": "CC(C)C[C@H](NC(=O)[C@@H](NC(=O)[C@H](C)N)[C@@H](C)O)C(=O)N[C@@H](CO)C(=O)O [ATLS] (H-ATLS-OH)", "Ratio of metabolite abundance, Exp3_3hr": 1.026}
{"Compound": "O=C(O)CC[C@H](NC(=O)[C@H](CCC(=O)O)NC(=O)[C@@H]1CCCN1)C(=O)O [PEE] (H-Pro-Glu-Glu-OH)", "Ratio of metabolite abundance, Exp3_3hr": 1.044}
{"Compound": "NCCOP(=O)(O)OP(=O)(O)OC[C@H]1O[C@@H](n2ccc(N)nc2=O)[C@H](O)[C@@H]1O", "Ratio of metabolite abundance, Exp3_3hr": 1.029}
{"Compound": "CC(C)[C@H](NC(=O)[C@@H](N)Cc1c[nH]cn1)C(=O)N[C@@H](CC(=O)O)C(=O)N[C@@H](CC(=O)O)C(=O)O [HVDD] (H-HVDD-OH)", "Ratio of metabolite abundance, Exp3_3hr": 0.4236}
{"Compound": "O=c1ccn([C@@H]2O[C@H](COP(=O)(O)OP(=O)(O)O)[C@@H](O)[C@H]2O)c(=O)[nH]1", "Ratio of metabolite abundance, Exp3_3hr": 0.7434}

With those in mind, consider the next compound.
Which measured Ratio of metabolite abundance, Exp3_3hr belongs to `Nc1ccn([C@H]2C[C@H](O)[C@@H](COP(=O)(O)OP(=O)(O)O)O2)c(=O)n1` , tested on erythrocytes infected with 3D7 trophozoites?
1.295

====

test system: erythrocytes infected with 3D7 trophozoites; type: cell-based, Plasmodium falciparum; details: sheet Ratio; Exp2, 1hr
Peptide text beside a SMILES is read from it.
Reported Metric: Ratio of metabolite abundance, Exp2_1hr
The answer should be written as a number, with no unit following it.

{"Compound": "CC(C)C[C@H](NC(=O)[C@H](C)NC(=O)[C@@H](N)CC(=O)O)C(=O)N[C@H](C(=O)O)[C@@H](C)O [DALT] (H-DALT-OH)", "Reported Metric": "Ratio of metabolite abundance, Exp2_1hr", "Reported Value": 0.755}
{"Compound": "CC(C)[C@H](NC(=O)[C@@H]1CCCN1)C(=O)N[C@@H](CCC(N)=O)C(=O)O [PVQ] (H-Pro-Val-Gln-OH)", "Reported Metric": "Ratio of metabolite abundance, Exp2_1hr", "Reported Value": 1.963}
{"Compound": "CC(=O)N[C@@H](C)C(=O)O", "Reported Metric": "Ratio of metabolite abundance, Exp2_1hr", "Reported Value": 1.062}
{"Compound": "Nc1ncnc2c1ncn2[C@H]1C[C@H](O)[C@@H](COP(=O)(O)OP(=O)(O)O)O1", "Reported Metric": "Ratio of metabolite abundance, Exp2_1hr", "Reported Value": 1.0009}
{"Compound": "Cc1cc2nc3c(=O)[nH]c(=O)nc-3n(C[C@H](O)[C@H](O)[C@H](O)COP(=O)(O)O)c2cc1C", "Reported Metric": "Ratio of metabolite abundance, Exp2_1hr", "Reported Value": 1.341}
{"Compound": "O=c1ccn([C@H]2C[C@H](O)[C@@H](COP(=O)(O)O)O2)c(=O)[nH]1", "Reported Metric": "Ratio of metabolite abundance, Exp2_1hr", "Reported Value": 3.524}
{"Compound": "O=C1O[C@H]([C@H](O)CO)[C@H](O)[C@H]1O", "Reported Metric": "Ratio of metabolite abundance, Exp2_1hr", "Reported Value": 1.636}
{"Compound": "CC(C)C[C@H](NC(=O)[C@@H](N)Cc1cnc[nH]1)C(=O)N[C@@H](CC(=O)O)C(=O)O [HLD] (H-His-Leu-Asp-OH)", "Reported Metric": "Ratio of metabolite abundance, Exp2_1hr", "Reported Value": 0.9181}
{"Compound": "CC(C)[C@H](NC(=O)[C@H](CC(N)=O)NC(=O)[C@@H](N)[C@@H](C)O)C(=O)N[C@@H](CCCCN)C(=O)O [TNVK] (H-TNVK-OH)", "Reported Metric": "Ratio of metabolite abundance, Exp2_1hr", "Reported Value": 0.5855}
{"Compound": "NC(=O)C1=CN([C@@H]2O[C@H](COP(=O)(O)OP(=O)(O)OC[C@H]3O[C@@H](n4cnc5c(N)ncnc54)[C@H](O)[C@@H]3O)[C@@H](O)[C@H]2O)C=CC1", "Reported Metric": "Ratio of metabolite abundance, Exp2_1hr", "Reported Value": 0.4801}

May I ask what Ratio of metabolite abundance, Exp2_1hr has been recorded for `NC(=O)c1ccc[n+]([C@@H]2O[C@H](COP(=O)([O-])OP(=O)(O)OC[C@H]3O[C@@H](n4cnc5c(N)ncnc54)[C@H](O)[C@@H]3O)[C@@H](O)[C@H]2O)c1` ?
0.9571

Next entry: O=C(CO)COP(=O)(O)O [Glycerone phosphate]
1.254

Next entry: CC(C)C[C@H](NC(=O)[C@@H](NC(=O)[C@H](C)N)[C@@H](C)O)C(=O)N[C@@H](CO)C(=O)O [ATLS] (H-ATLS-OH)
1.031

Next entry: `CC(C)(COP(=O)(O)OP(=O)(O)OC[C@H]1O[C@@H](n2cnc3c(N)ncnc32)[C@H](O)[C@@H]1OP(=O)(O)O)[C@@H](O)C(=O)NCCC(=O)NCCS`
0.7277
